- measurementProtocol: yeast display, Sf9 membrane polyspecificity reagent, FACS + sequencing; frameworks hold sequencing errors

biosequence	polyreactivity (PSR sort gate)
QVQLVESGGGLVQAGGSLRLSCAASGSTFSWYAMGWYRQAPGKERELVAAISSGGSTNYADSVKGRFTISRDNAKNTVYLQMNSMKPEDTAVYYCAAVWSRFLISYSTGWWFEYWGQGTKVTVSS	low polyreactivity
QVQLVESGGGLVQAGGSLRLSCAASGRTFISNAMGWYRQAPGKERELVAAISSVGSTNYADSVKGRFTISRDNAKNTVYLQMKSLKPEDTAVYYCAAGRFWFLAHYGGYYWGQGTQVTVSS	high polyreactivity
QVQLVESGGGLVQAGGSLRLSCAASGITFTFNAKGWYRQAPGKERELVAAISSTTSTIYADSVKRRFTISRDNAKNTVYLQMNRLKPEDTAVYYCAAVEFELLGDYWRQGTQVTVSS	low polyreactivity
QVQLVESGGGLVQAGGSLRLSCAASGRIFPAYAMGWYRQAPGKERELVAAISWTGTSTYYADSVKGRFTISRDNAKNTVYLQMNSLKPEDTAVYYCAARSYRLRSAYNYWGQGTQVTVSS	high polyreactivity
QVQLVESGGGLVQAGGSLRLSCAATGLIFRSYAMGWYRQAPGKDRELVARISIRGGSTYYADSVKGRFTISRDNAKNTGSLQMNSLKPEDTAVYYCAAVGSFRGYRYDYWGQGTQVTVSS	high polyreactivity
HVQLVESGGGLVQAGGSLRLSCAASGRIFGPNAMGWYRQAPGKERELVAAISSGTGSRTYYADSVKGRFTISRDNAKKTVSLQMISLKPEDTAVYYCAVYSQQVYRWKYRFDYWGQGTQVTVSS	low polyreactivity
QVQLVESGGGLVQAGGSLRLSCAASGSIYRYAMGWYRQAPGKERELVAAINFNGGRTYYADSVKGRFTISRDNAKNTVYLQMNSLKPEDTAVYYCAAVRSSNQGGFDYWGHGTQVTVSS	high polyreactivity
QVQLVESGGGLVQAGGSLRLSCAASGRTFRLNGMGWYRQAPGKERELVAAITWSGGRTDYADSVKGRFTISRDNAKNTVYLQMNSLKPEDTAVYYCAAGKSSYGKPKYYYWGQGTQVTVSS	high polyreactivity
QVQLVESGGGLVQAGGSLRLSCAASGSISWYYAMGWYRQAPGKERELVAAISDSGGDTYYADSVKGRFTISRDNAKNTVYLQMNSLKPEDTAVYYCAAQYRGSYRTTYDYWGQGTQVTVSS	low polyreactivity
QVQLVESGGGLVQAGGSLRLSCAASGFIFATYAMGWYRQAPGKERELVAAISRRGVRTNYADSVKGRFTISRDNAKNTVYLQMNSLKQEDTAVYYCNAQSHYGKIPMYYWGQGTQVTVSS	high polyreactivity
QVQLVESGGGLVQAGGSLRLSCAASGSIFRKKAMGWYRQAPGKERELVAAITGTGRTTYADSVKGRFTISRDNAKNTVYLQMNSLKPEDTAVYYCAAEYYYRYSYTNEGDYWGQGTQVTVSS	low polyreactivity
